Each recorded value in this set is attributed to the supplement of paper PMC10065799.

Molecular target: Fyn (UniProt P06241)
Sequence (P06241 whole entry, looked up): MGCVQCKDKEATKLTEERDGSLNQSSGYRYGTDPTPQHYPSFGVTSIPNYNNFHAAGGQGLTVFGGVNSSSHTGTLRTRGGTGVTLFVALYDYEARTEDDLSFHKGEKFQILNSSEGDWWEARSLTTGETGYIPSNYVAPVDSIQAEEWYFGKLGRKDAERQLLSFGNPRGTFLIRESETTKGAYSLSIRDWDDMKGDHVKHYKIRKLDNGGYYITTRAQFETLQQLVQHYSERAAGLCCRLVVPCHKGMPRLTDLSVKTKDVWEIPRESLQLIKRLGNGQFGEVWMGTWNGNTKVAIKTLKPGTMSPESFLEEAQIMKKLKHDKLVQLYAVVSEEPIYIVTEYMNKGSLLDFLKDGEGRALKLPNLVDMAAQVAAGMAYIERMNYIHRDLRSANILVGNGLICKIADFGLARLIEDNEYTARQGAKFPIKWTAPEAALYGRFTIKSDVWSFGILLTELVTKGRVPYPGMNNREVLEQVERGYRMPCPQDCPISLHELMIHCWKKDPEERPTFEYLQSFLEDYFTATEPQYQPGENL
Assay: phosphorylation enrichment, bacterial display (enrichment ratio); higher = better substrate or ligand; peptides without Tyr show the background
property-name: phosphorylation enrichment
Enter the number alone.

For record KVMANYVYKAG [MAML2_Y513_M514V] the listed phosphorylation enrichment is 0.339

###

Some sequences, each annotated with its measured phosphorylation enrichment.
Molecular target: EPHB1 (UniProt P54762)
Sequence (P54762 whole entry, looked up): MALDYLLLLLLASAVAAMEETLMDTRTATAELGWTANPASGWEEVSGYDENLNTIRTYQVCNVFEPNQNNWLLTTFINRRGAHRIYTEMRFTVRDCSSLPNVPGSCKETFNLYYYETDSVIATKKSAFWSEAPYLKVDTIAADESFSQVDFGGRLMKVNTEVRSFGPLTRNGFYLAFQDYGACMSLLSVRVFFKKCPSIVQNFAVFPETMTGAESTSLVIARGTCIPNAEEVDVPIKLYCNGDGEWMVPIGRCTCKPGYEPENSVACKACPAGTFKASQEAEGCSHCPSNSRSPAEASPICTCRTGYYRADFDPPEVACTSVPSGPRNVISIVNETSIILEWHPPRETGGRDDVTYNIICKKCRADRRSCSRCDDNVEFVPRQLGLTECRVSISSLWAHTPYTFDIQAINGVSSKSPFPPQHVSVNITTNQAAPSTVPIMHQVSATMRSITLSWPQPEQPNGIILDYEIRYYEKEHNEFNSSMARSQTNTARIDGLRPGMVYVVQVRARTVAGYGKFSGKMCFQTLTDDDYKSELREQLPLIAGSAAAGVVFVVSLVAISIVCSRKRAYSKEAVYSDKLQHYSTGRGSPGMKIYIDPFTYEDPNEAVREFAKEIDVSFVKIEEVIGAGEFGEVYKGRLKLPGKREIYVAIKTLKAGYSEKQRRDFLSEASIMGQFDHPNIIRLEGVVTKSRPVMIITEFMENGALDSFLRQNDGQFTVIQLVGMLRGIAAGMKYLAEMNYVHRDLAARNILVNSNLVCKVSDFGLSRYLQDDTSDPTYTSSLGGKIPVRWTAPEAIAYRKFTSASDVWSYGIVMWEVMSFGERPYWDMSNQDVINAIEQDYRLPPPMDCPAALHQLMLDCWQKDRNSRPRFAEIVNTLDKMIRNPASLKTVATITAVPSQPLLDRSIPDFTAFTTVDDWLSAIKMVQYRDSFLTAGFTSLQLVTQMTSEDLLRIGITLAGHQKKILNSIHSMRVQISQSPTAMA
Assay: phosphorylation enrichment, bacterial display (enrichment ratio); higher = better substrate or ligand; peptides without Tyr show the background
Reply with the value as a number alone.

Record excerpt, results attached:
residues="EKMWTYMPSAE [GRIA4_Y695_R697P]" recorded_value=0.504
residues="IGRHAYGDQFR [IDH1_Y135_YF]" recorded_value=0.367
residues="DTDSSYCIPIA [GAB1_Y373_T377I]" recorded_value=0.829
residues="GGYTCYSDGKK [PROS1_Y266_C267S]" recorded_value=0.677

# phosphorylation enrichment of GTFVIYVRFSG [FLNB_Y1687_G1691S_YF] = 0.572

###

Target: SHP2-C SH2;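 note: peptide library displayed on the E. coli surface as eCPX fusions, selected cells deep-sequenced, score is each peptide's frequency after selection divided by its frequency in the input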
Assay: SH2 binding enrichment of the phosphorylated peptide, bacterial display (enrichment ratio); higher = better substrate or ligand; peptides without Tyr show the background
property-name: SH2 binding enrichment
Provide a numeric answer; units are not to be included.

residues="LFIGQYSGKKE [L1CAM_Y1229_S1224L]" property_name="SH2 binding enrichment" recorded_value=0.745
residues="NGTVTYAIIAG [CDH23_Y1672_V1675I]" property_name="SH2 binding enrichment" recorded_value=16.6
residues="ENRKYYKDLKE [PURA_Y156_M157K]" property_name="SH2 binding enrichment" recorded_value=0.574
residues="ELANLYHHVCM [BICD2_Y538]" property_name="SH2 binding enrichment" recorded_value=0.597
residues="EPVSDYINADI [PTPN11_Y304_N308D]" property_name="SH2 binding enrichment" recorded_value=0.437

Data point: FLENFYDLKKD [MMP3_Y42_YF] ; SH2 binding enrichment = 0.788

# sequence KGEDFYCVTFH [FHL1_Y149_C153Y_YF] ; its SH2 binding enrichment = 0.799

Entry SVKVFYKKCWS [EPHA7_Y202_YF] — recorded SH2 binding enrichment = 0.707

Per the records, this sequence ( EEKKKYFDTKI [CASP5_Y103_YF] ) has SH2 binding enrichment equal to 0.698

// SH2 binding enrichment value for ISKQEYDEAGP [ACTC1_Y364] : 0.718

Sample CTTIHHNFMCN [TP53_Y234_Y234H_YF] ; SH2 binding enrichment observed: 0.933

Kindly note the recorded SH2 binding enrichment for CATIHYNFMCN [TP53_Y234_T230A_YF] , which is 1.51

Record KVDKECEVRVR [GHR_Y226_Y226C] , field SH2 binding enrichment: 0.842

###

System: c-Src
Experiment: phosphorylation enrichment, bacterial display (enrichment ratio); higher = better substrate or ligand; peptides without Tyr show the background
Note to self: values exactly at 0.5 are true. So phosphorylation enrichment at or above 0.5 is true, below is false.

Example cases with answers are listed next.
residues="RKGGSYTQAAS [HLA-A_Y344]" assigned_class=false
residues="ILCTVYAFKTR [GRM3_Y754]" assigned_class=true
residues="PKAWNYELPAT [PROM1_Y34]" assigned_class=false
residues="RGRSTCYWPRP [GAGE12J_Y9_Y9C]" assigned_class=true
residues="NCLRVYVAGRF [CRB1_Y711_E710V]" assigned_class=true

[in] Hello, I need to know if CEQELYSQLVF [WAS_Y102_W97C_YF] has measured phosphorylation enrichment not below 0.5. Thanks!
[out] true

[in] Has QKNVSYVSTVS [TASOR_Y1043] a recorded phosphorylation enrichment greater than or equal to 0.5?
[out] false

[in] Test whether the sequence LLQEWYMIISR [HUWE1_Y4066_R4063Q] records phosphorylation enrichment of 0.5 or higher.
[out] true

[in] Determine whether measured phosphorylation enrichment meets or exceeds 0.5 for KLIMEYLPYGS [JAK2_Y931]
[out] true
